FYI, the data here is from ChEMBL document CHEMBL3822455.

Assay comment: Half life in Sprague-Dawley rat at 2 mg/kg, iv or 5 mg/kg, po
Type: ADME, organism-based
Run conditions: in vivo
Parameter: half-life (h)
Unit h implied. Number only.

Example cases with answers are listed next.
{"Compound": "COC(=O)N[C@H](C(=O)N1CCC[C@H]1c1ncc(-c2ccc3c(c2)OC(c2cccc(Cl)c2)n2c-3cc3cc(-c4cnc([C@@H]5CCCN5C(=O)[C@@H](NC(=O)OC)C(C)C)[nH]4)ccc32)[nH]1)C(C)C (some centres undefined)", "half-life [h]": 4.1}
{"Compound": "COC(=O)N[C@H](C(=O)N1CCC[C@H]1c1ncc(-c2ccc3c(c2)OC(c2cccc(F)c2)n2c-3cc3cc(-c4cnc([C@@H]5CCCN5C(=O)[C@@H](NC(=O)OC)C(C)C)[nH]4)ccc32)[nH]1)C(C)C (some centres undefined)", "half-life [h]": 5.4}
{"Compound": "COC(=O)N[C@H](C(=O)N1CCC[C@H]1c1ncc(-c2ccc3c(c2)OC(c2ccc(OC(F)(F)F)cc2)n2c-3cc3cc(-c4cnc([C@@H]5CCCN5C(=O)[C@@H](NC(=O)OC)C(C)C)[nH]4)ccc32)[nH]1)C(C)C (mixture of isomers)", "half-life [h]": 6.3}

Now take the following compound into account.
Task: Consider the compound shown here: COC(=O)N[C@H](C(=O)N1CCC[C@H]1c1ncc(-c2ccc3c(c2)OC(c2cccc(OC)c2)n2c-3cc3cc(-c4cnc([C@@H]5CCCN5C(=O)[C@@H](NC(=O)OC)C(C)C)[nH]4)ccc32)[nH]1)C(C)C (mixture of isomers) What is its recorded half-life?
Result: 4.6
